Assay text: qHTS assay to identify small molecule antagonists of the estrogen related receptor (ERR) signaling pathway - cell viability counter screen (AID 1224818);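 note: viability measured after 17.5 h of compound exposure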
Experimental context: ERR reporter cell line viability counter screen; series mostly up to 46.1 µM
Results filed as inconclusive are left out. Calls of active or inactive are those of the source. Calls come from the whole dose curve; as a rule, active = well fitted cell-killing curve with a large enough effect in the repeat runs; inconclusive = weak or mixed curves; inactive = flat fitted curve, though single readings scatter.

Structure smiles | outcome
CCCN1CCC[C@@H](c2cccc(O)c2)C1 | inactive
CCCN1CC[C@@H]2c3cc(O)ccc3CC[C@@H]21 | inactive
CN1CCc2cc(O)cc3c2[C@H]1Cc1ccc(O)c(O)c1-3 | inactive

* * *

Tested on: estrogen-related receptor alpha (ERRalpha) with PGC-1alpha coactivator, human
Assay text: qHTS assay to identify small molecule antagonists of the estrogen related receptor signaling pathway with the pleiotropic PPARgamma coactivator (PGC) (AID 1224821); note: nearly all actives have a fitted effect of over 50% in size
Experimental context: ERR/PGC reporter cell line, luciferase, antagonist mode; series mostly up to 46.1 µM
Results filed as inconclusive are left out. Activity calls are given as the source filed them. Calls come from the whole dose curve.
Outcome codes: yes (1) = active, no (0) = inactive

Compound | Test system | Classification
C[N+]1(C)CCOC(O)(c2ccc(-c3ccc(C4(O)C[N+](C)(C)CCO4)cc3)cc2)C1 (stereo unspecified) | estrogen-related receptor alpha (ERRalpha) with PGC-1alpha coactivator, human | no (0)
NCc1cc(=O)[nH]o1 | estrogen-related receptor alpha (ERRalpha) with PGC-1alpha coactivator, human | no (0)
NNC(=O)c1ccc(O)cc1 | estrogen-related receptor alpha (ERRalpha) with PGC-1alpha coactivator, human | no (0)
COc1cc(C(O)CN)ccc1O (stereo unspecified) | estrogen-related receptor alpha (ERRalpha) with PGC-1alpha coactivator, human | no (0)
O=C(Cc1ccc(Cl)c(Cl)c1)N1CCCCC1CN1CCCC1 (stereo unspecified) | estrogen-related receptor alpha (ERRalpha) with PGC-1alpha coactivator, human | no (0)
CC1(C(=O)O)C2CCC(O2)C1(C)C(=O)O (stereo unspecified) | estrogen-related receptor alpha (ERRalpha) with PGC-1alpha coactivator, human | no (0)
NCC(O)c1cc(O)c(O)cc1F (stereo unspecified) | estrogen-related receptor alpha (ERRalpha) with PGC-1alpha coactivator, human | no (0)
CN1CCc2cc(O)cc3c2[C@H]1Cc1ccc(O)c(O)c1-3 | estrogen-related receptor alpha (ERRalpha) with PGC-1alpha coactivator, human | no (0)
Oc1ccc2c3c1O[C@H]1c4oc5ccccc5c4C[C@@]4(O)C(C2)N(CC2CC2)CCC314 (stereo partly specified) | estrogen-related receptor alpha (ERRalpha) with PGC-1alpha coactivator, human | no (0)
CCNC(=O)[C@H]1O[C@@H](n2cnc3c(N)ncnc32)[C@H](O)C1O (stereo partly specified) | estrogen-related receptor alpha (ERRalpha) with PGC-1alpha coactivator, human | no (0)
Cn1cnc(CCN)c1 | estrogen-related receptor alpha (ERRalpha) with PGC-1alpha coactivator, human | no (0)
C[N+](C)(C)CC#CCN1CCCC1=O | estrogen-related receptor alpha (ERRalpha) with PGC-1alpha coactivator, human | no (0)
CC(N)[C@H](O)c1ccc(O)c(O)c1 (stereo partly specified) | estrogen-related receptor alpha (ERRalpha) with PGC-1alpha coactivator, human | no (0)
O=[N+]([O-])c1cc(O)c(O)c([N+](=O)[O-])c1 | estrogen-related receptor alpha (ERRalpha) with PGC-1alpha coactivator, human | no (0)
CN1CCc2cccc(Cl)c2CC1 | estrogen-related receptor alpha (ERRalpha) with PGC-1alpha coactivator, human | no (0)
C[C@]12CCC3C(CC[C@H]4C[C@H](O)CC[C@]34C)C1CC[C@@H]2C(=O)CO (stereo partly specified) | estrogen-related receptor alpha (ERRalpha) with PGC-1alpha coactivator, human | no (0)
Oc1ccc2c3c1O[C@H]1c4[nH]c5ccccc5c4C[C@@]4(O)C(C2)N(CC2CC2)CCC314 (stereo partly specified) | estrogen-related receptor alpha (ERRalpha) with PGC-1alpha coactivator, human | no (0)
C[N+]1(C)C2CCC1CC(OC(=O)c1c[nH]c3ccccc13)C2 (stereo unspecified) | estrogen-related receptor alpha (ERRalpha) with PGC-1alpha coactivator, human | no (0)
CCCCCN(C)CCC(O)(P(=O)(O)O)P(=O)(O)O | estrogen-related receptor alpha (ERRalpha) with PGC-1alpha coactivator, human | no (0)
Nc1ccc([N+](=O)[O-])cc1 | estrogen-related receptor alpha (ERRalpha) with PGC-1alpha coactivator, human | no (0)
NC(N)=NOCC[C@H](N)C(=O)O | estrogen-related receptor alpha (ERRalpha) with PGC-1alpha coactivator, human | no (0)
C=CCN1CC[C@]23CCCCC2[C@H]1Cc1ccc(O)cc13 (stereo partly specified) | estrogen-related receptor alpha (ERRalpha) with PGC-1alpha coactivator, human | no (0)
CCCN1CCO[C@@H]2c3cc(O)ccc3OC[C@H]21 | estrogen-related receptor alpha (ERRalpha) with PGC-1alpha coactivator, human | no (0)
COc1cc(OC)c(OC)cc1C=O | estrogen-related receptor alpha (ERRalpha) with PGC-1alpha coactivator, human | no (0)
C=CCN1C[C@@H](C)N([C@H](c2ccc(C(=O)N(CC)CC)cc2)c2cccc(OC)c2)C[C@@H]1C | estrogen-related receptor alpha (ERRalpha) with PGC-1alpha coactivator, human | no (0)
NC(C(=O)O)c1cc(=O)[nH]o1 (stereo unspecified) | estrogen-related receptor alpha (ERRalpha) with PGC-1alpha coactivator, human | no (0)
CCCN(CCC)[C@H]1CCc2c(F)ccc(O)c2C1 | estrogen-related receptor alpha (ERRalpha) with PGC-1alpha coactivator, human | no (0)
C[N+](C)(C)CC#CCOC(=O)Nc1cccc(Cl)c1 | estrogen-related receptor alpha (ERRalpha) with PGC-1alpha coactivator, human | no (0)
NC(CCP(=O)(O)O)C(=O)O (stereo unspecified) | estrogen-related receptor alpha (ERRalpha) with PGC-1alpha coactivator, human | no (0)
C[N+]1(C)CCc2cc3c(cc2[C@H]1[C@@H]1OC(=O)c2c1ccc1c2OCO1)OCO3 | estrogen-related receptor alpha (ERRalpha) with PGC-1alpha coactivator, human | no (0)
NCCc1c[nH]c2ccccc12 | estrogen-related receptor alpha (ERRalpha) with PGC-1alpha coactivator, human | no (0)
OCc1cnc[nH]1 | estrogen-related receptor alpha (ERRalpha) with PGC-1alpha coactivator, human | no (0)
O=[N+]([O-])c1c(Cl)c(Cl)cc(Cl)c1Cl | estrogen-related receptor alpha (ERRalpha) with PGC-1alpha coactivator, human | no (0)
COc1ccc(C(c2ccc(OC)cc2)C(Cl)(Cl)Cl)cc1 | estrogen-related receptor alpha (ERRalpha) with PGC-1alpha coactivator, human | no (0)
NC(N)=Nc1ccc2[nH]c3c(c2c1)C[C@@]1(O)[C@H]2Cc4ccc(O)c5c4[C@@]1(CCN2CC1CC1)[C@H]3O5 | estrogen-related receptor alpha (ERRalpha) with PGC-1alpha coactivator, human | no (0)
COc1ccc2c(c[n+](C)c3c4cc5c(cc4ccc23)OCO5)c1OC | estrogen-related receptor alpha (ERRalpha) with PGC-1alpha coactivator, human | yes (1)
